- Assay Remarks: gst-4 reporter inhibition in live C. elegans – whole organism, uHTS, GFP/RFP fluorescence ratio, strain VP596, SKN-1 inhibitor project, primary screen (AID 624304)
- Measurement Setup: C. elegans VP596 Pgst-4::GFP/RFP ratio, acrylamide-induced, 24 h; at 21.8 µM; hits give high values
The whole screen tested about 360,000 compounds, of which about 1,800 (0.5%) were called active. What follows is part of a selection rich in actives, with near analogues and random picks from the rest.
Readout: inhibition (%)
Write it as a number; the unit % goes unstated.

Solved cases (5 shown):
Compound: Cc1cccc2cc(C#N)c(N3CCCC3)nc12
Readout: inhibition
Unit Tag: %
Recorded Result: 32.6
//
Compound: NC(=O)C1CCN(C2OC(=O)c3ccccc32)CC1 (stereo not given)
Readout: inhibition
Unit Tag: %
Recorded Result: -35.9
//
Compound: COc1cc2[nH]c(=S)n(Cc3ccc(F)cc3)c(=O)c2cc1OC
Readout: inhibition
Unit Tag: %
Recorded Result: -0.963
//
Compound: NS(=O)(=O)c1ccccc1NC(=O)c1c(O)c2ccccc2[nH]c1=O
Readout: inhibition
Unit Tag: %
Recorded Result: 5.41
//
Compound: O=C(Nc1ccc(Oc2ccccc2)cc1)c1ccco1
Readout: inhibition
Unit Tag: %
Recorded Result: 38.8

Q: Data request, read-out inhibition, for CCOc1cc2[nH]c(=S)n(CCN3CCCCC3C)c(=O)c2cc1OCC (stereo not given)
Result: -6.45

Q: Data request, read-out inhibition, for O=C(c1ccc(Cl)cc1)n1cnc2ccccc21
Result: 11.4

Q: Data request, read-out inhibition, for O=C(NC(=S)Nc1cccc2c(O)cccc12)c1cccc(Br)c1
Result: 41.4

Q: Data request, read-out inhibition, for COc1cc(OC)cc(C(=O)OCC(=O)Nc2sccc2C(N)=O)c1
Result: 0.966

* * *

Known inhibition of a selection of molecules
- Assay Remarks: gst-4 reporter inhibition in live C. elegans – whole organism, uHTS, GFP/RFP fluorescence ratio, strain VP596, SKN-1 inhibitor project, primary screen (AID 624304)
- Measurement Setup: C. elegans VP596 Pgst-4::GFP/RFP ratio, acrylamide-induced, 24 h; at 21.8 µM; hits give high values
The campaign covered roughly 360,000 compounds. About 1,800 (0.5%) were called active. This excerpt belongs to a sample that is enriched for actives.
Write it as a number; the unit % goes unstated.

Solved cases (5 shown):
Molecule: CC1(C)N=C(N)NC(Nc2ccc(Cl)cc2)=N1
inhibition (%): 9.6
--
Molecule: Cc1c(Cl)c([N+](=O)[O-])nn1CC(=O)NCCCN1CCOCC1
inhibition (%): 28.4
--
Molecule: O=C(NC1CCCC1)c1cc(-c2ccccc2)on1
inhibition (%): 37.3
--
Molecule: CN1CCN(C(CNS(=O)(=O)c2cccs2)c2cccnc2)CC1 (stereo not drawn)
inhibition (%): -8.82
--
Molecule: CC(C)c1ccc(NC(=O)COC(=O)c2ccc(CN3CCCC3=O)cc2)cc1
inhibition (%): -1.54

Q: Data request, read-out inhibition, for O=C(NC1CCCCCCC1)c1cccs1
Result: 22.3

Q: Data request, read-out inhibition, for Cc1ccnc(SCCn2c(Br)nc3c2c(=O)[nH]c(=O)n3C)n1
Result: -9.02

Q: Data request, read-out inhibition, for C=CC[C@@H](CC(=O)NCCO)C(=O)N[C@H](C)COC(=O)[C@@H](CC=C)CC(=O)OC(C)(C)C
Result: 4
